src = patent US4442044A

tested on: Lambsquarters; test: post-emergent herbicidal activity, greenhouse; type: in vivo; details: Table II, 4 WAT, 5.6 kg/h
Recorded measurements of post-emergent herbicidal activity index, one per entry

compound: CCOC(=O)CNCP(=O)(OC(C)C#N)OC(C)C#N (stereo not drawn)
post-emergent herbicidal activity index: 3 (75-99% control)

compound: CC(C#N)OP(=O)(CNCC#N)OC(C)C#N (stereo not drawn)
post-emergent herbicidal activity index: 4 (100% control)

compound: CC(C#N)OP(=O)(O)CNCC(=O)OCc1ccccc1 (stereo not drawn)
post-emergent herbicidal activity index: 3 (75-99% control)

* * *

Recorded measurements of post-emergent herbicidal activity index, one per entry
system: Johnsongrass; assay: post-emergent herbicidal activity, greenhouse; type: in vivo; conditions: Table I, 4 WAT, 5.6 kg/h

molecule: CCOC(=O)CNCP(=O)(O)OC(C)C(=O)OC (stereo not shown) [Example 28]
target-system: Johnsongrass
post-emergent herbicidal activity index: 2 (50-74% control)

molecule: CCOC(=O)CNCP(=O)(OC(C)C(=O)OC)OC(C)C(=O)OC (stereo not shown) [Example 18]
target-system: Johnsongrass
post-emergent herbicidal activity index: 0 (0-24% control)

molecule: CC(C#N)OP(=O)(O)CNCC(=O)OCCCl (stereo not shown) [Example 7]
target-system: Johnsongrass
post-emergent herbicidal activity index: 1 (25-49% control)

molecule: CCOC(=O)CNCP(=O)(O)OC(C#N)CC (stereo not shown) [Example 8]
target-system: Johnsongrass
post-emergent herbicidal activity index: 3 (75-99% control)
